- Tested on: HEK293T
- ASSAY_NOTES: qHTS assay to identify novel small-molecules to repurpose for Merkel cell carcinoma treatment (AID 1296009); also: nearly all actives have a fitted effect of over 60% in size
- CONDITION_SUMMARY: MCC and control cell lines, CellTiter-Glo viability, 72 h; at 44.8 µM (top of the series) unless noted
Inconclusive results are not listed. Calls of active or inactive are those of the source. Calls follow the shape of the dose curve; as a rule, active = well fitted inhibition curve with a large enough effect; inconclusive = small, poorly fitted or top-dose-only effect; inactive = flat fitted curve, though single readings scatter.
PROPERTY_MEASURED: outcome

                                   molecule  observed_measurement
0       CCN(C)C(=O)Oc1cccc([C@H](C)N(C)C)c1              inactive
1  O=C(O)CSCC(=O)NC1CCSC1=O (stereo not drawn)              inactive
